Hello, the source for this data is ChEMBL document CHEMBL3885861, in case you need it.

Organism: Rattus norvegicus
Procedure summary: Open TG-GATES - Regimen: Daily Repeat
Assay type: toxicity, organism-based, Sprague-Dawley
Set-up: regimen Daily Repeat, gender Male, age 6 weeks
Measurement context: in vivo, po, 300 mg/kg, […], tissue Plasma, route gavage, dose level Middle, time 7 day
Listed here: items and their measured Ca.
Measurement kind: Ca (mg/dL)

>>> meas_value("CCCCNC(=O)NS(=O)(=O)c1ccc(C)cc1 [TOLBUTAMIDE]")
10.8
>>> meas_value("CC(=O)[C@@]1(O)CC[C@H]2[C@@H]3C=C(Cl)C4=CC(=O)CC[C@]4(C)[C@H]3CC[C@@]21C [CHLORMADINONE]")
10.9
>>> meas_value("CC(S)C(=O)NCC(=O)O (centres undefined) [TIOPRONIN]")
10.6
>>> meas_value("O=C(O)c1ccccc1Nc1ccccc1 [FENAMIC ACID]")
11.8

---

Species: Rattus norvegicus
Procedure summary: Open TG-GATES - Regimen: Daily Repeat
Assay type: toxicity, organism-based, Sprague-Dawley
Set-up: regimen Daily Repeat, gender Male, age 6 weeks
Measurement context: in vivo, po, 1000 mg/kg, […], tissue Plasma, route gavage, dose level High, time 7 day
Measurement kind: AST (IU/L)

>>> meas_value("CCCCNC(=O)NS(=O)(=O)c1ccc(C)cc1 [TOLBUTAMIDE]")
71.4
>>> meas_value("CC(S)C(=O)NCC(=O)O (centres undefined)")
67.8
>>> meas_value("CC(=O)[C@@]1(O)CC[C@H]2[C@@H]3C=C(Cl)C4=CC(=O)CC[C@]4(C)[C@H]3CC[C@@]21C")
71.4
>>> meas_value("O=C(O)c1ccccc1Nc1ccccc1")
62.7

---

Organism: Rattus norvegicus
Procedure summary: Open TG-GATES - Regimen: Single
Assay type: toxicity, organism-based, Sprague-Dawley
Parameters: regimen Single, gender Male, age 6 weeks
Measurement context: in vivo, po, 0 mg/kg, 9 h, tissue Plasma, route gavage, dose level Control
Listed here: items and their measured K.
Measurement kind: K (meq/L)

>>> meas_value("CC(=O)[C@@]1(O)CC[C@H]2[C@@H]3C=C(Cl)C4=CC(=O)CC[C@]4(C)[C@H]3CC[C@@]21C [CHLORMADINONE]")
4.1
>>> meas_value("Nc1ccc(Cc2ccc(N)cc2)cc1")
4
>>> meas_value("O=c1ccc2ccccc2o1 [COUMARIN]")
5.1
>>> meas_value("C=C[C@H]1C[N@@]2CC[C@H]1C[C@@H]2[C@@H](O)c1ccnc2ccc(OC)cc12 [QUINIDINE]")
4.4
>>> meas_value("CCN(CC)C(=S)SSC(=S)N(CC)CC")
4.1
>>> meas_value("COc1ccc([C@@H]2Sc3ccccc3N(CCN(C)C)C(=O)[C@@H]2OC(C)=O)cc1 [DILTIAZEM]")
4.1
>>> meas_value("CCCCNC(=O)NS(=O)(=O)c1ccc(C)cc1 [TOLBUTAMIDE]")
4.3
>>> meas_value("CN(C/C=C/C#CC(C)(C)C)Cc1cccc2ccccc12 [TERBINAFINE]")
3.9
>>> meas_value("COc1cc2ncnc(Nc3ccc(F)c(Cl)c3)c2cc1OCCCN1CCOCC1 [GEFITINIB]")
4.2
>>> meas_value("CN(C)CCCN1c2ccccc2Sc2ccc(Cl)cc21 [CHLORPROMAZINE]")
3.8
>>> meas_value("NS(=O)(=O)c1cc(C(=O)O)c(NCc2ccco2)cc1Cl [FUROSEMIDE]")
4
>>> meas_value("CC(S)C(=O)NCC(=O)O (stereo not given) [TIOPRONIN]")
4.5
>>> meas_value("O=C(O)c1ccccc1Nc1ccccc1 [FENAMIC ACID]")
3.9
>>> meas_value("CN(CCOc1ccc(CC2SC(=O)NC2=O)cc1)c1ccccn1.O=C(O)/C=C\\C(=O)O (stereo not given) [ROSIGLITAZONE MALEATE]")
4.5
>>> meas_value("CCO [ALCOHOL]")
5.1

---

Organism: Rattus norvegicus
Procedure summary: Open TG-GATES - Regimen: Daily Repeat
Type: toxicity, organism-based, Sprague-Dawley
Set-up: regimen Daily Repeat, gender Male, age 6 weeks
Measurement context: in vivo, po, 0 mg/kg, […], tissue Plasma, route gavage, dose level Control, time 7 day
Listed here: items and their measured gamma-GTP.
Measurement kind: gamma-GTP (IU/L)

>>> meas_value("CC(S)C(=O)NCC(=O)O (configuration not stated)")
1.8
>>> meas_value("CC(=O)[C@@]1(O)CC[C@H]2[C@@H]3C=C(Cl)C4=CC(=O)CC[C@]4(C)[C@H]3CC[C@@]21C")
2.2
>>> meas_value("NS(=O)(=O)c1cc(C(=O)O)c(NCc2ccco2)cc1Cl [FUROSEMIDE]")
0.8
>>> meas_value("CN(C/C=C/C#CC(C)(C)C)Cc1cccc2ccccc12")
0.8
>>> meas_value("CCCCC1C(=O)N(c2ccccc2)N(c2ccccc2)C1=O")
1.8
>>> meas_value("COc1ccc([C@@H]2Sc3ccccc3N(CCN(C)C)C(=O)[C@@H]2OC(C)=O)cc1")
1
>>> meas_value("O=c1ccc2ccccc2o1")
1.4

---

Species: Rattus norvegicus
Procedure summary: Open TG-GATES - Regimen: Daily Repeat
Format: toxicity, organism-based, Sprague-Dawley
Set-up: regimen Daily Repeat, gender Male, age 6 weeks
Measurement context: in vivo, po, 1000 mg/kg, 72 h, tissue Plasma, route gavage, dose level High, time 3 day
Listed here: items and their measured LDH.
Measurement kind: LDH (IU/L)

>>> meas_value("O=C(O)c1ccccc1Nc1ccccc1")
100.3
>>> meas_value("CC(=O)[C@@]1(O)CC[C@H]2[C@@H]3C=C(Cl)C4=CC(=O)CC[C@]4(C)[C@H]3CC[C@@]21C")
190.2
>>> meas_value("CCCCNC(=O)NS(=O)(=O)c1ccc(C)cc1 [TOLBUTAMIDE]")
75.6
>>> meas_value("CC(S)C(=O)NCC(=O)O (centres undefined)")
173.4

---

Species: Rattus norvegicus
Procedure summary: Open TG-GATES - Regimen: Daily Repeat
Type: toxicity, organism-based, Sprague-Dawley
Set-up: regimen Daily Repeat, gender Male, age 6 weeks
Measurement context: in vivo, po, 300 mg/kg, […], tissue Kidney, route gavage, dose level Middle, time 28 day
Listed here: items and their measured KIDNEY_TOTAL.
Measurement kind: KIDNEY_TOTAL (g)

>>> meas_value("CCCCNC(=O)NS(=O)(=O)c1ccc(C)cc1 [TOLBUTAMIDE]")
2.8
>>> meas_value("CC(S)C(=O)NCC(=O)O (centres undefined) [TIOPRONIN]")
2.9
>>> meas_value("CC(=O)[C@@]1(O)CC[C@H]2[C@@H]3C=C(Cl)C4=CC(=O)CC[C@]4(C)[C@H]3CC[C@@]21C [CHLORMADINONE]")
2.4
>>> meas_value("O=C(O)c1ccccc1Nc1ccccc1 [FENAMIC ACID]")
3

---

Species on record: Rattus norvegicus
Procedure summary: Open TG-GATES - Regimen: Daily Repeat
Assay type: toxicity, organism-based, Sprague-Dawley
Parameters: regimen Daily Repeat, gender Male, age 6 weeks
Measurement context: in vivo, po, 100 mg/kg, 72 h, tissue Plasma, route gavage, dose level Low, time 3 day
Measurement kind: ALT (IU/L)

>>> meas_value("CCCCNC(=O)NS(=O)(=O)c1ccc(C)cc1 [TOLBUTAMIDE]")
46.2
>>> meas_value("O=C(O)c1ccccc1Nc1ccccc1 [FENAMIC ACID]")
37.6
>>> meas_value("CC(=O)[C@@]1(O)CC[C@H]2[C@@H]3C=C(Cl)C4=CC(=O)CC[C@]4(C)[C@H]3CC[C@@]21C [CHLORMADINONE]")
54
>>> meas_value("CC(S)C(=O)NCC(=O)O (centres undefined) [TIOPRONIN]")
43.6

---

Organism: Rattus norvegicus
Procedure summary: Open TG-GATES - Regimen: Daily Repeat
Format: toxicity, organism-based, Sprague-Dawley
Set-up: regimen Daily Repeat, gender Male, age 6 weeks
Measurement context: in vivo, po, 0 mg/kg, […], tissue Plasma, route gavage, dose level Control, time 14 day
Measurement kind: Ca (mg/dL)

>>> meas_value("O=c1ccc2ccccc2o1 [COUMARIN]")
10.8
>>> meas_value("CCO [ALCOHOL]")
10.6
>>> meas_value("CN(C/C=C/C#CC(C)(C)C)Cc1cccc2ccccc12 [TERBINAFINE]")
10.6
>>> meas_value("CC(=O)[C@@]1(O)CC[C@H]2[C@@H]3C=C(Cl)C4=CC(=O)CC[C@]4(C)[C@H]3CC[C@@]21C [CHLORMADINONE]")
10.6
>>> meas_value("CCCCNC(=O)NS(=O)(=O)c1ccc(C)cc1 [TOLBUTAMIDE]")
11
>>> meas_value("COc1ccc([C@@H]2Sc3ccccc3N(CCN(C)C)C(=O)[C@@H]2OC(C)=O)cc1 [DILTIAZEM]")
10.8

---

Listed here: items and their measured Lym.
Organism: Rattus norvegicus
Procedure summary: Open TG-GATES - Regimen: Single
Type: toxicity, organism-based, Sprague-Dawley
Parameters: regimen Single, gender Male, age 6 weeks
Measurement context: in vivo, po, 0 mg/kg, 3 h, tissue Blood, route gavage, dose level Control
Measurement kind: Lym (%)

>>> meas_value("CN(CCOc1ccc(CC2SC(=O)NC2=O)cc1)c1ccccn1.O=C(O)/C=C\\C(=O)O (centres undefined) [ROSIGLITAZONE MALEATE]")
75.6
>>> meas_value("O=c1ccc2ccccc2o1 [COUMARIN]")
83.8
>>> meas_value("CC(=O)[C@@]1(O)CC[C@H]2[C@@H]3C=C(Cl)C4=CC(=O)CC[C@]4(C)[C@H]3CC[C@@]21C [CHLORMADINONE]")
83.4
>>> meas_value("CC(S)C(=O)NCC(=O)O (centres undefined) [TIOPRONIN]")
81.6
